# Species: Rattus norvegicus
# assay overview: Incorporation of [14C]- acetate into sterols measured in rat spleen.
# Format: functional, organism-based
pIC50: −log10 of the molar value.
property measured: pIC50

# molecule, pIC50
data = [
    ("Cn1nnnc1C(/C=C/[C@@H](O)C[C@@H](O)CC(=O)[O-])=C(c1ccc(F)cc1)c1ccc(F)cc1.[Na+]", 5.80),
    ("CC(C)c1nn(-c2ccccn2)c(-c2ccc(F)cc2)c1/C=C/[C@@H](O)C[C@@H](O)CC(=O)[O-].[Na+]", 7.54),
    ("CC(C)c1nc(-c2ccccc2)cc(-c2ccc(F)cc2)c1/C=C/[C@@H](O)C[C@@H](O)CC(=O)[O-].[Na+]", 7.11),
    ("CC(C)c1nc2ccc(Cl)cc2c(-c2ccc(F)cc2)c1/C=C/[C@@H](O)C[C@@H](O)CC(=O)[O-].[Na+]", 7.04),
    ("CC[C@H](C)C(=O)O[C@H]1C[C@H](C)C=C2C=C[C@H](C)[C@H](CC[C@@H]3C[C@@H](O)CC(=O)O3)[C@H]21", 8.30),
]

(A) CC(C)c1nn(-c2ccccc2)c(-c2ccc(F)cc2)c1/C=C/[C@@H](O)C[C@@H](O)CC(=O)[O-].[Na+]
(B) CC(C)c1c(Br)c(Br)c(-c2ccc(F)cc2)n1CC[C@@H](O)C[C@@H](O)CC(=O)[O-].[Na+]
Lab log: flag the item ( A or B ) with the smaller pIC50 figure. Response format: the label of the selected entry.
B
(B: 6.85, A: 7.92)

###

So I've got pIC50 readings for 3-hydroxy-3-methylglutaryl-coenzyme A reductase (Rattus norvegicus), take a look.
pIC50: −log10 of the molar value.
property measured: pIC50

Check out these entries, answers already filled in.
# molecule, system, test value
measured = [
    ("Cc1cc(-c2ccc(F)cc2)c(/C=C/[C@@H](O)C[C@@H](O)CC(=O)[O-])c(C(C)C)[n+]1[O-].[Na+]", "3-hydroxy-3-methylglutaryl-coenzyme A reductase (Rattus norvegicus)", 8.03),
    ("CC[C@H](C)C(=O)O[C@H]1C[C@H](O)C=C2C=C[C@H](C)[C@H](CC[C@@H](O)C[C@@H](O)CC(=O)[O-])[C@H]21.[Na+] [PRAVASTATIN SODIUM]", "3-hydroxy-3-methylglutaryl-coenzyme A reductase (Rattus norvegicus)", 7.40),
]

(P) CC(C)c1nn(-c2ccccn2)c(-c2ccc(F)cc2)c1/C=C/[C@@H](O)C[C@@H](O)CC(=O)[O-].[Na+]
(Q) CC(C)c1c(Br)c(Br)c(-c2ccc(F)cc2)n1CC[C@@H](O)C[C@@H](O)CC(=O)[O-].[Na+]
(R) CC(C)c1nc2ccc(Cl)cc2c(-c2ccc(F)cc2)c1/C=C/[C@@H](O)C[C@@H](O)CC(=O)[O-].[Na+]
(S) CC(C)c1nc(-c2ccccc2)cc(-c2ccc(F)cc2)c1/C=C/[C@@H](O)C[C@@H](O)CC(=O)[O-].[Na+]
# ascending order, key=pIC50 I'd appreciate it if you listed the labels in the requested order.
R, Q, P, S

###

# Species on record: Rattus norvegicus
# assay overview: Incorporation of [14C]- acetate into sterols measured in rat spleen.
# Type: functional, organism-based
property measured: IC50 (nM)

Check out these entries, answers already filled in.
# compound, unit abbrev, IC50
records = [
    ("CC[C@H](C)C(=O)O[C@H]1C[C@H](O)C=C2C=C[C@H](C)[C@H](CC[C@@H](O)C[C@@H](O)CC(=O)[O-])[C@H]21.[Na+] [PRAVASTATIN SODIUM]", "nM", 228),
    ("CC(C)c1nn(-c2cnccn2)c(-c2ccc(F)cc2)c1/C=C/[C@@H](O)C[C@@H](O)CC(=O)[O-].[Na+]", "nM", 20),
]

(a) Cc1ccc(-c2ccc(C(C)C)c(OC[C@@H](O)C[C@@H](O)CC(=O)[O-])c2-c2ccc(F)cc2)cc1.[Na+]
(b) Cc1cc(C)c(OC[C@@H](O)C[C@@H](O)CC(=O)[O-])c(C2CCCCCC2)c1.[Na+]
Between a and b , which one shows the larger IC50 value? Response format: the label of the selected entry.
a
(a: 375 nM, b: 108 nM)
